// provenance: paper PMC8591608

- Protocol Text: PMM cytotoxicity assay
- Format: cell-based
- Experimental Conditions: mouse, primary peritoneal mouse macrophages (PMM); Table 6; geometric mean of at least two independent tests
The reader will find reported CC50 at 3 days values listed item by item below.
Quantity Name: CC50 at 3 days (µM)

[[record]]
compound_structure = "Cc1c(C(=O)Nc2ccc3c(c2)B(O)OC3)cnn1-c1ccccn1"
quantity_name = "CC50 at 3 days"
unit_tag = "µM"
qualifier_sign = ">"
measured_number = 64

[[record]]
compound_structure = "O=C(Nc1ccc2c(c1)B(O)OC2)c1cn(CC(F)(F)F)nc1C(F)(F)F"
quantity_name = "CC50 at 3 days"
unit_tag = "µM"
qualifier_sign = "="
measured_number = 53.8

[[record]]
compound_structure = "Cc1c(-c2ccccn2)coc1C(=O)Nc1ccc2c(c1)B(O)OC2"
quantity_name = "CC50 at 3 days"
unit_tag = "µM"
qualifier_sign = "="
measured_number = 54

